# measured.target: human DHODH (Homo sapiens (Human), UniProt Q02127)
# Sequence (Q02127 whole entry): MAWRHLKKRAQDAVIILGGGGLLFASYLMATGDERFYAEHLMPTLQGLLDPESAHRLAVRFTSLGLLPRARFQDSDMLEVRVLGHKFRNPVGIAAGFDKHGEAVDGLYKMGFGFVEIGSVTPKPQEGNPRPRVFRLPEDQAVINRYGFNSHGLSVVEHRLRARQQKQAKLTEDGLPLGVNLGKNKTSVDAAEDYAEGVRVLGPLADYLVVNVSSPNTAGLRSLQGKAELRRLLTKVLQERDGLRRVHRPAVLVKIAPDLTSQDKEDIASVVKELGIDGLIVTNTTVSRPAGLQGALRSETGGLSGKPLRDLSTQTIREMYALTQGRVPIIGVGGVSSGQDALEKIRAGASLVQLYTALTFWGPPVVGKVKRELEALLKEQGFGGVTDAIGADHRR
pIC50: −log10 of the molar value.
We use 8 as the dividing line for pIC50: on or above the line is yes, below is no.

[in] Check if pIC50 >= 8 (inclusive). Item: "CCn1c(CO)nn(-c2cc3c(C(C)C)cn(-c4cnccc4C)c(=O)c3cc2F)c1=O"
[out] yes

[in] Check if pIC50 >= 8 (inclusive). Item: "CCn1c(CO)nn(-c2cc3c(C(C)C)nn(-c4ccccc4C)c(=O)c3cc2F)c1=O"
[out] yes

[in] Check if pIC50 >= 8 (inclusive). Item: "CCn1c(CO)nn(-c2cc3c(C(C)C)cn(-c4nc(OC)ccc4Cl)c(=O)c3cc2F)c1=O"
[out] yes

[in] Check if pIC50 >= 8 (inclusive). Item: "CCn1c(CO)nn(-c2ccc3c(=O)n(-c4c(Cl)cccc4Cl)cc(C4(C)CC4)c3c2)c1=O"
[out] yes

[in] Check if pIC50 >= 8 (inclusive). Item: "C=C(C)c1cn(-c2ccc(F)cc2C)c(=O)c2cc(F)c(-n3nc(CO)n(CC)c3=O)cc12"
[out] yes

[in] Check if pIC50 >= 8 (inclusive). Item: CCn1c(CO)nn(-c2cc3c(C(C)C)cn([C@@H]4CCCC[C@H]4C)c(=O)c3cc2F)c1=O (stereo in doubt)
[out] yes

[in] Check if pIC50 >= 8 (inclusive). Item: "C=C(c1cn(-c2c(F)cccc2Cl)c(=O)c2ccc(-n3nc(CO)n(CC)c3=O)cc12)C(F)(F)F"
[out] yes

[in] Check if pIC50 >= 8 (inclusive). Item: CCn1c(CO)nn(-c2cc3c(C(C)C(F)(F)F)cn(-c4ccccc4C)c(=O)c3cc2F)c1=O (racemic)
[out] yes

[in] Check if pIC50 >= 8 (inclusive). Item: "CCn1c(CO)nn(-c2cc3c(C(C)C)cn(-c4cccnc4OC)c(=O)c3cc2F)c1=O"
[out] no

[in] Check if pIC50 >= 8 (inclusive). Item: "C=C(C)c1cn(-c2ccccc2C#N)c(=O)c2ccc(-n3nc(CO)n(CC)c3=O)cc12"
[out] yes

[in] Check if pIC50 >= 8 (inclusive). Item: CCC(COC)n1cc(C(C)C)c2cc(-n3nc(CO)n(CC)c3=O)c(F)cc2c1=O (stereo not drawn)
[out] no

[in] Check if pIC50 >= 8 (inclusive). Item: CCn1c(CO)nn(-c2cc3c(C(C)C)cn([C@H]4CCC[C@@H](OC)C4)c(=O)c3cc2F)c1=O (racemic)
[out] no

[in] Check if pIC50 >= 8 (inclusive). Item: "CCn1c(CO)nn(-c2ccc3c(=O)n(-c4cccc(F)c4)nc(C(C)C)c3c2)c1=O"
[out] no

[in] Check if pIC50 >= 8 (inclusive). Item: "CCc1nn(-c2cccc(F)c2)c(=O)c2ccc(-n3nc(CO)n(CC)c3=O)cc12"
[out] no
